Assay: Ratio of drug level in brain to plasma in PS2APP transgenic mouse at 20 mg/kg, po after 2 hrs
Type: ADME, organism-based
Parameters: dose 20 mg/kg, route oral
Conditions: read-out: BPR
metric.name: Kp at 2 h

Q. Quick check: Kp at 2 h of `COc1ccc(CN([C@@H]2CC(F)(F)CCNC2=O)S(=O)(=O)c2ccc(Cl)cc2)cn1` ?
A. 0.06

Q. Quick check: Kp at 2 h of `COc1ccc(CN([C@@H]2CC(F)(F)CCNC2=O)S(=O)(=O)c2ccc(Cl)cc2)c(F)c1F` ?
A. < 0.1

----------
Test: Solubility of the compound
Type: physicochemical
metric.name: solubility

Q. Quick check: solubility of `CC(C)C[C@H](C(N)=O)N(Cc1ccc2c(c1)OCO2)S(=O)(=O)c1ccc(Cl)cc1` ?
A. < 1 µg/mL

----------
Molecular target: Gamma-secretase
Experiment: Inhibition of human gamma secretase in HEK293 cells assessed as reduction of amyloid beta level by ELISA
pIC50: −log10 of the molar value.
So basically: pIC50 at 7 or higher? That is Y. Lower than 7? That is N.

Q. Hi, just wondering whether CC1(C)CCCC(N(Cc2ccc(C(=O)NC3CC3)cc2)S(=O)(=O)c2ccc(Cl)cc2)C(=O)N1 (configuration not stated) shows pIC50 of 7 or higher.
A. N

Q. Hi, just wondering whether `CC(C)C[C@H](C(N)=O)N(Cc1ccc2c(c1)OCO2)S(=O)(=O)c1ccc(Cl)cc1` shows pIC50 of 7 or higher.
A. Y

Q. Hi, just wondering whether CC1(C)CCC(N(Cc2ccc(C(=O)NC3CC3)cc2)S(=O)(=O)c2ccc(Cl)cc2)C(=O)NC1 (configuration not stated) shows pIC50 of 7 or higher.
A. N

Q. Hi, just wondering whether `CC(C)C[C@H](C(=O)NO)N(Cc1ccc2c(c1)OCO2)S(=O)(=O)c1ccc(Cl)cc1` shows pIC50 of 7 or higher.
A. N

Q. Hi, just wondering whether `COc1ccc(CN([C@@H]2CC(F)(F)CCNC2=O)S(=O)(=O)c2ccc(Cl)cc2)cn1` shows pIC50 of 7 or higher.
A. Y

Q. Hi, just wondering whether `O=C(NC1CC1)c1ccc(CN([C@@H]2CC(F)(F)CCNC2=O)S(=O)(=O)c2ccc(Cl)cc2)cc1` shows pIC50 of 7 or higher.
A. Y

Q. Hi, just wondering whether O=C1NCCCC1N(Cc1ccc2c(c1)OCO2)S(=O)(=O)c1ccc(Cl)cc1 (configuration not stated) shows pIC50 of 7 or higher.
A. N

Q. Hi, just wondering whether COc1ccc(CN(C2CCCCNC2=O)S(=O)(=O)c2ccc(Cl)cc2)cn1 (configuration not stated) shows pIC50 of 7 or higher.
A. N

Q. Hi, just wondering whether O=C(NC1CC1)c1ccc(CN(C2CC(C(F)(F)F)CCNC2=O)S(=O)(=O)c2ccc(Cl)cc2)cc1 (racemic) shows pIC50 of 7 or higher.
A. Y

Q. Hi, just wondering whether O=C(NC1CC1)c1ccc(CN(C2CCCCNC2=O)S(=O)(=O)c2ccc(Cl)cc2)cc1 (configuration not stated) shows pIC50 of 7 or higher.
A. N

Q. Hi, just wondering whether `CC1(C)CCNC(=O)[C@H](N(Cc2ccc(C(=O)NC3CC3)cc2)S(=O)(=O)c2ccc(Cl)cc2)C1` shows pIC50 of 7 or higher.
A. Y

Q. Hi, just wondering whether CC(C)C1CCNC(=O)C(N(Cc2ccc(C(=O)NC3CC3)cc2)S(=O)(=O)c2ccc(Cl)cc2)C1 (racemic) shows pIC50 of 7 or higher.
A. Y

Q. Hi, just wondering whether CC1(C)CCCNC(=O)C1N(Cc1ccc(C(=O)NC2CC2)cc1)S(=O)(=O)c1ccc(Cl)cc1 (configuration not stated) shows pIC50 of 7 or higher.
A. N

Q. Hi, just wondering whether `COc1ccc(CN([C@@H]2CC(F)(F)CCNC2=O)S(=O)(=O)c2ccc(Cl)cc2)c(F)c1` shows pIC50 of 7 or higher.
A. Y

Q. Hi, just wondering whether O=C1NCCCCCC1N(Cc1ccc2c(c1)OCO2)S(=O)(=O)c1ccc(Cl)cc1 (configuration not stated) shows pIC50 of 7 or higher.
A. N

Q. Hi, just wondering whether CN(C)C(=O)c1ccc(CN(C2CCCCNC2=O)S(=O)(=O)c2ccc(Cl)cc2)cc1 (configuration not stated) shows pIC50 of 7 or higher.
A. N

Q. Hi, just wondering whether CC1(C)CCNC(=O)C(N(Cc2ccc(C(=O)NC3CC3)cc2)S(=O)(=O)c2ccc(Cl)cc2)C1 (configuration not stated) shows pIC50 of 7 or higher.
A. Y

Q. Hi, just wondering whether O=C1NCCC1N(Cc1ccc2c(c1)OCO2)S(=O)(=O)c1ccc(Cl)cc1 (configuration not stated) shows pIC50 of 7 or higher.
A. N
